Biological target: S1P3 (membranes from EDG3-Ga15-bla HEK293T cells) (Homo sapiens (Human))
Sequence (Q99500 whole entry): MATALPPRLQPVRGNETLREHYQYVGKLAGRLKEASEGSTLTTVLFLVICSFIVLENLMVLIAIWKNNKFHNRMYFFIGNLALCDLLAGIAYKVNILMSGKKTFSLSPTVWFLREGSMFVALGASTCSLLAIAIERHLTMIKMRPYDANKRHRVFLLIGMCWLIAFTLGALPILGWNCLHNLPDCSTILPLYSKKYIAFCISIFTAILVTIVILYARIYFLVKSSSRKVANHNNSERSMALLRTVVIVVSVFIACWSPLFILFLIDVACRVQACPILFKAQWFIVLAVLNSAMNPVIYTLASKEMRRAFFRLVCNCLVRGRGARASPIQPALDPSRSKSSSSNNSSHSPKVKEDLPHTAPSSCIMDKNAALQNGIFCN
Test: Receptor [35S] GTPγS Binding Assay, S1P3
Type: biochemical
Conditions: detection limit 31250 nM
endpoint: pEC50
As a rule, pEC50 stands for the negative log10 of the concentration, concentration in M.

Examples with their reported pEC50 follow.
>>> recorded_measurement("O=C(O)C1(CN[C@@H]2COc3cc(-c4noc(-c5onc(-c6ccccc6)c5C(F)(F)F)n4)ccc3[C@@H]2O)CCC1 [Example 41]")
5.08
>>> recorded_measurement("O=C(O)C1(CN[C@@H]2COc3cc(-c4noc(-c5onc(-c6ccccc6)c5C(F)(F)F)n4)ccc3[C@@H]2O)CC1 [Example 30]")
5.10
>>> recorded_measurement("N[C@@H]1COc2cc(-c3noc(-c4onc(-c5ccccc5)c4C(F)(F)F)n3)ccc2[C@@H]1O [Example 9]")
5.07
>>> recorded_measurement("N[C@@H]1COc2cc(-c3noc(-c4onc(-c5ccccc5)c4C(F)(F)F)n3)ccc2[C@H]1O (racemic) [Example 4]")
4.89
>>> recorded_measurement("O=C(O)[C@@H]1CCC[C@@H](N[C@@H]2COc3cc(-c4noc(-c5onc(-c6ccccc6)c5C(F)(F)F)n4)ccc3[C@@H]2O)C1 [Example 65]")
4.96

Q) Can you look up the measured pEC50 of O=C(O)[C@H]1CCC[C@H](N[C@@H]2COc3cc(-c4noc(-c5onc(-c6ccccc6)c5C(F)(F)F)n4)ccc3[C@@H]2O)C1 [Example 57] for me?
A) 5.14
